# tested-target: Sodium-dependent serotonin transporter (Homo sapiens, UniProt P31645)
# Sequence (P31645 whole entry): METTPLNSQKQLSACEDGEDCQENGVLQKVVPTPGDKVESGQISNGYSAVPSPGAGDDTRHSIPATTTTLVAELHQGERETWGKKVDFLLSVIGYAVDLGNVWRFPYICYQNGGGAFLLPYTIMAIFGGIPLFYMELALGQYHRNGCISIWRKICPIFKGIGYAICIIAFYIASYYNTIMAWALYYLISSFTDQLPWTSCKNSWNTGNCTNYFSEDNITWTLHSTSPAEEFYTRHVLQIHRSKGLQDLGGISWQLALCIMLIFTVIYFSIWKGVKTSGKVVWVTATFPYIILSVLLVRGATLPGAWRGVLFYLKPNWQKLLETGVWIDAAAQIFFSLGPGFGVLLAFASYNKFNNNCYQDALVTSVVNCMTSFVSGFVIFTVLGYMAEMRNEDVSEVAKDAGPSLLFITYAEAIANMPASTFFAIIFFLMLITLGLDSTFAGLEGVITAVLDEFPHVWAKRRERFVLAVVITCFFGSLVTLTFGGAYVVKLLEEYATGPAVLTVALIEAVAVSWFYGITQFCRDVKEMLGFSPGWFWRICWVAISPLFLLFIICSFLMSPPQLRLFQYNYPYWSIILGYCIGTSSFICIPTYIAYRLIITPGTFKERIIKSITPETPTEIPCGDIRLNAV
# measurement-description: Compound was tested for inhibition of [3H]5-HT binding to Serotonin transporter in HEK cells
measured-attribute: IC50 (nM)
Give the value, in units of nM, as a plain number.

Examples from the recorded data:
- compound: "CN1C2CCC1C(C(=O)NCCCCNC(=O)C1C(c3ccc(Cl)cc3)CC3CCC1N3C)C(c1ccc(Cl)cc1)C2 (centres undefined)"
  recorded-measurement: 176
- compound: "CN1C2CCC1C(C(=O)NCCCCCCNC(=O)C1C(c3ccc(Cl)cc3)CC3CCC1N3C)C(c1ccc(Cl)cc1)C2 (centres undefined)"
  recorded-measurement: 225
- compound: "CN1C2CCC1C(C(=O)NCCCCCCCCNC(=O)C1C(c3ccc(Cl)cc3)CC3CCC1N3C)C(c1ccc(Cl)cc1)C2 (centres undefined)"
  recorded-measurement: 99

Now look at this entry.
## Task Complete the entry with IC50 for CN1C2CCC1C(C(=O)NCCCNC(=O)C1C(c3ccc(Cl)cc3)CC3CCC1N3C)C(c1ccc(Cl)cc1)C2 (centres undefined)
## Result 441
